# study target: Rat SGLT1 (Rattus norvegicus)
# Sequence (P53790 whole entry): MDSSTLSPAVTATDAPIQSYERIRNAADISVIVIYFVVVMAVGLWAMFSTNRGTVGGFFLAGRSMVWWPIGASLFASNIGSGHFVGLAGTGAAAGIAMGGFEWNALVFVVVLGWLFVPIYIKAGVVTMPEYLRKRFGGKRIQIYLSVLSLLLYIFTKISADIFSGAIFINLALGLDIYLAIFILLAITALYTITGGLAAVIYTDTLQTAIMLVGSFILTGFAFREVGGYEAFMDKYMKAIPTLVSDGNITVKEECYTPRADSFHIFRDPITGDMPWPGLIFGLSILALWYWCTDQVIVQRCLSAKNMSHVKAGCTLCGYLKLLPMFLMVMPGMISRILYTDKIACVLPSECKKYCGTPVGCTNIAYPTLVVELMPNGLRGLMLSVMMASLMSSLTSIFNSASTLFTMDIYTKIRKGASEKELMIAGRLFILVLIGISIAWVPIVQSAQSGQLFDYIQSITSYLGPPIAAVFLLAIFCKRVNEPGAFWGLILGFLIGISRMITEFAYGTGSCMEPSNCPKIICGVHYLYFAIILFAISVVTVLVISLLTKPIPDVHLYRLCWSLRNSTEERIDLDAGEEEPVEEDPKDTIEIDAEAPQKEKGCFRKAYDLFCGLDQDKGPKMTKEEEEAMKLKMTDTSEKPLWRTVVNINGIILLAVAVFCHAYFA
# test summary: 14C-AMG uptake in CHOK cells expressing rat SGLT1
# run parameters: mean of 2 experiments
parameter measured: IC50 (nM)
Please give a number only; it is taken to be in nM.

Tell me the measured IC50 of Cc1ccc([C@@H]2O[C@H](CO)[C@@H](O)[C@H](O)[C@H]2O)cc1Cc1ccc(-c2ccc(F)cc2)s1 [canagliflozin, Canagliflozin] , please.
571

---

# study target: Mouse SGLT1 (Mus musculus, UniProt Q8C3K6)
# Sequence (Q8C3K6 whole entry): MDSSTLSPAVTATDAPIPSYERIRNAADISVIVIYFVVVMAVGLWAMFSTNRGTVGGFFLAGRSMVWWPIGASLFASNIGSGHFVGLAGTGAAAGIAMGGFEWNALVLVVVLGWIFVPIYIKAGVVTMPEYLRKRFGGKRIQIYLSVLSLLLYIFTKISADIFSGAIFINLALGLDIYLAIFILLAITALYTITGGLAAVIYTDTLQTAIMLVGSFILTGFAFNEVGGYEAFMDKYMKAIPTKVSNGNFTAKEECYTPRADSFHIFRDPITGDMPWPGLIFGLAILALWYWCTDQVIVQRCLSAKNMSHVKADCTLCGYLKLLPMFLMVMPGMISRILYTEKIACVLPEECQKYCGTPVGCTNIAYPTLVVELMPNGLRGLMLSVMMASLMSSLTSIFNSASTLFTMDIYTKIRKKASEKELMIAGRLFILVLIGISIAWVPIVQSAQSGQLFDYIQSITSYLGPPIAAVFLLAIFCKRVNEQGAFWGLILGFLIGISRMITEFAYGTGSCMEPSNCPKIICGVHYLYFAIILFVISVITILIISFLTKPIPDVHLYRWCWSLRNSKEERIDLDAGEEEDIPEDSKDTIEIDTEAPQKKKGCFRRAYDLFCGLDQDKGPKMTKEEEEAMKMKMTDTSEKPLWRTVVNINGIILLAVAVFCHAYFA
# test summary: 14C-AMG uptake in CHOK cells expressing mouse SGLT1
# run parameters: CHO-mSGLT1 cells, mean of 2 experiments
parameter measured: IC50

Need IC50 of Cc1ccc([C@@H]2O[C@H](CO)[C@@H](O)[C@H](O)[C@H]2O)cc1Cc1ccc(-c2ccc(F)cc2)s1 , thanks.
> 1000 nM

---

# study target: UniProt P53792
# Sequence (P53792 whole entry): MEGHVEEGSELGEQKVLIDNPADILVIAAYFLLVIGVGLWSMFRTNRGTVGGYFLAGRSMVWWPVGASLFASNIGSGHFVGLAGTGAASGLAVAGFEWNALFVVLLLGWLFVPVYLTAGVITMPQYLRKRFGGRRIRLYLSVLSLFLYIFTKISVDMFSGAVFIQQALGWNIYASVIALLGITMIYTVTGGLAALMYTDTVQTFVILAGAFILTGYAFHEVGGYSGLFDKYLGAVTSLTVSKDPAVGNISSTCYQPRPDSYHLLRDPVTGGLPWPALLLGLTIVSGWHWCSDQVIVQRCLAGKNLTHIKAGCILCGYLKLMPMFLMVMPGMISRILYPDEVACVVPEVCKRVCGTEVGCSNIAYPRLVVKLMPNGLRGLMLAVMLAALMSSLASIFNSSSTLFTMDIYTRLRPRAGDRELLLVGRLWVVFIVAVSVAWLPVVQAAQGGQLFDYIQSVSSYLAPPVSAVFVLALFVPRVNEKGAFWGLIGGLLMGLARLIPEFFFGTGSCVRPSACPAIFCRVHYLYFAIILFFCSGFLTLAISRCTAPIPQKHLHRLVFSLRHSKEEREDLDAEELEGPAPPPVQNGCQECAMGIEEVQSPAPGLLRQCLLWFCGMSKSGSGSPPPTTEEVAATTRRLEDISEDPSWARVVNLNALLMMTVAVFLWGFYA
parameter measured: pIC50
pIC50 is defined as minus the log10 of a concentration measured in mol/L.

Recorded pIC50 for Cc1ccc([C@@H]2O[C@H](CO)[C@@H](O)[C@H](O)[C@H]2O)cc1Cc1ccc(-c2ccc(F)cc2)s1 with UniProt P53792, please?
8.43

---

# study target: glucose transporter 1 (GLUT1) (Rattus norvegicus, UniProt P11167)
# Construct: endogenous in cells; host or cells: L6 rat skeletal muscle myoblasts
# Sequence (P11167 1-492): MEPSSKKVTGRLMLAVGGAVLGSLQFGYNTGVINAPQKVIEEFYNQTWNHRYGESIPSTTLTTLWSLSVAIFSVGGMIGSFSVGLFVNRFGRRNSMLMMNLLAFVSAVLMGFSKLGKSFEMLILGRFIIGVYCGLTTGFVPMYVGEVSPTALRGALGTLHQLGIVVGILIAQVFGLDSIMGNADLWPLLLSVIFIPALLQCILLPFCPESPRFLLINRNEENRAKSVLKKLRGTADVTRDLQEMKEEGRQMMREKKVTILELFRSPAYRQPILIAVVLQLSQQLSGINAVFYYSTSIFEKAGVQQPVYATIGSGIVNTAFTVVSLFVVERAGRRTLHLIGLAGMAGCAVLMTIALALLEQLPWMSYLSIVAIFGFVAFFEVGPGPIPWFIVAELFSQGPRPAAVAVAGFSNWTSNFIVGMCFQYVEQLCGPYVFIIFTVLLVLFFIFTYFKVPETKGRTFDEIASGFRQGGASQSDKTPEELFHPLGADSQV
# test summary: 3H-2-deoxy-glucose uptake in L6 myoblast cells
# Type: cell-based
# run parameters: 3H-2-DG uptake, rat L6 myoblast cells
parameter measured: IC50

Look up IC50: Cc1ccc([C@@H]2O[C@H](CO)[C@@H](O)[C@H](O)[C@H]2O)cc1Cc1ccc(-c2ccc(F)cc2)s1 [canagliflozin, Canagliflozin]
> 10 µM

---

# study target: Mouse SGLT2 (Mus musculus, UniProt Q923I7)
# Sequence (Q923I7 whole entry): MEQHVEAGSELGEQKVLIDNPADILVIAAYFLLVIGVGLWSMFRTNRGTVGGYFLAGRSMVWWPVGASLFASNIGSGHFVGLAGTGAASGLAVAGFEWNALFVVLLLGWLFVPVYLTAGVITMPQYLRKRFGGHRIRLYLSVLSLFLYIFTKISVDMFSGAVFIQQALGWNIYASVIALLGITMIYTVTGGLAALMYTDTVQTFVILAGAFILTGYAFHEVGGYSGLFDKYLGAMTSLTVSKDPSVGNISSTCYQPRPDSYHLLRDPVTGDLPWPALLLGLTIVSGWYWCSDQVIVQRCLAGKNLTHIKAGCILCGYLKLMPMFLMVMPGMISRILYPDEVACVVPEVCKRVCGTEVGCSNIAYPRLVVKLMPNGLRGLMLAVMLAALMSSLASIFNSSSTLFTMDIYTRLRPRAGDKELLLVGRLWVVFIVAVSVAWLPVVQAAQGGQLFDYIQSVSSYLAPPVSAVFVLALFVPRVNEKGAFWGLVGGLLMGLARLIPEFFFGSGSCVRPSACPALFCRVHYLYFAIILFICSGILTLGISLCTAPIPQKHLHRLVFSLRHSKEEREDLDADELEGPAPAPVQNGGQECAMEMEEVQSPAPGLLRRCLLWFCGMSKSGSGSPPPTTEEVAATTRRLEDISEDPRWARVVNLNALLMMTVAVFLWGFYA
parameter measured: pIC50
Entry type: numeric. Quantity: pIC50, the -log10 of concentration in molar units.

pIC50 for Cc1ccc([C@@H]2O[C@H](CO)[C@@H](O)[C@H](O)[C@H]2O)cc1Cc1ccc(-c2ccc(F)cc2)s1 ?
8.70
